Target: EphrinB2-EphB2 (Homo sapiens, UniProt P29323)
Construct: soluble human EphB1-His, EphB2-His, and EphB4-His ectodomains; commercially available human EphrinB1-Fc (EB1), EphrinB2-Fc (EB2), and EphrinB3-Fc (EB3) ectodomain proteins; purchased
Sequence (P29323 19-543 limits assumed): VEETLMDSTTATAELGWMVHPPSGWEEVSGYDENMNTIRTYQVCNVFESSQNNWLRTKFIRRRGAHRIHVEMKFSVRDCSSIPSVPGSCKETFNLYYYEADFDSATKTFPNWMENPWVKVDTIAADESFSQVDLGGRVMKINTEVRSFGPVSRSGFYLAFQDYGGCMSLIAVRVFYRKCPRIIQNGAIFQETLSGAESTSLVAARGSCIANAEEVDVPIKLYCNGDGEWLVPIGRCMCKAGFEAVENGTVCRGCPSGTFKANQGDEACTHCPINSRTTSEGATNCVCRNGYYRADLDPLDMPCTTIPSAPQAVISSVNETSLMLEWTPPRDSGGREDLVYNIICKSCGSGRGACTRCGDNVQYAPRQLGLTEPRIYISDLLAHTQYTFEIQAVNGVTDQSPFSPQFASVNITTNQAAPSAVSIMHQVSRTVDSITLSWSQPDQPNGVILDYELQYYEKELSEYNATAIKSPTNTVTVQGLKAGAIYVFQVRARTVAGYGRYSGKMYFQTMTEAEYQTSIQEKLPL
Assay: Octet tetramerization inhibition, immobilized human EphrinB2 binding to 50 nM soluble human EphB2
Settings: Relative AUC/IC50, Table A, EphrinB2-EphB2; compound 7: association only
metric-name: IC50 (nM)
State just the number; it will be interpreted in nM.

compound: Oc1c(Cl)cc(CN2CCOCC2)c2cccnc12
value-measured: 510
--
compound: OCc1ccc2c(CN3CCOCC3)cc(Br)c(O)c2n1
value-measured: 1450
--
compound: O=[N+]([O-])c1ccc(N2CCN(Cc3ccc(O)c4ncccc34)CC2)cc1
value-measured: 1200
--
compound: Oc1c(I)cc(CN2CCOCC2)c2cccnc12 [Compound 7, 7-iodo-5-(morpholinomethyl)quinolin-8-ol]
value-measured: 440
--
compound: Oc1ccc(CN2CCN(Cc3ccccc3)CC2)c2cccnc12
value-measured: 2140

Ask: Suppose we examine the compound Oc1ccc(CN2CCN(Cc3ccc(Br)cc3)CC2)c2cccnc12 [Compound 42] ; what IC50 value has been reported?
Reply: 930

Ask: Please do the same for `Oc1ccc(CN2CCN(c3ccc(Br)cc3)CC2)c2cccnc12` as well.
Reply: 420

Ask: Please do the same for `COc1ccccc1N1CCN(Cc2ccc(O)c3ncccc23)CC1` as well.
Reply: 2010

Ask: Please do the same for `Oc1ccc(CN2CCN(c3ccc(I)cc3)CC2)c2cccnc12` as well.
Reply: 790

###

Target: EphA3-EphrinA5 (Homo sapiens)
Sequence (P29320 21-541 limits assumed): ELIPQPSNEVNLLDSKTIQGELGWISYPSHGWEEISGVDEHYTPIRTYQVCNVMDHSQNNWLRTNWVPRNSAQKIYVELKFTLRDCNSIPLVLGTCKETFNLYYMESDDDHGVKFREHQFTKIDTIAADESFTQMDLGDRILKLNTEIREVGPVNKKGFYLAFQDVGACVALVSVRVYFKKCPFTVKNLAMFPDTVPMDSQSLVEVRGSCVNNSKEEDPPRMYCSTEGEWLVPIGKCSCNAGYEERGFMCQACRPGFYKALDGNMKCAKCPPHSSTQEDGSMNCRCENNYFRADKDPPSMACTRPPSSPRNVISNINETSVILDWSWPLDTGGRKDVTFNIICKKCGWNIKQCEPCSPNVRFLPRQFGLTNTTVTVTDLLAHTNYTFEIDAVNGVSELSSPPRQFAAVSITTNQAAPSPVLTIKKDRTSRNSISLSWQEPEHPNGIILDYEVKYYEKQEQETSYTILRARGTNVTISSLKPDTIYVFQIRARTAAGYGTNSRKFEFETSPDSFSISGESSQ
Experiment: Octet, immobilized human EphA3 binding to human EphrinA5
Conditions: Human EphA3-EphrinA5; immobilized human EphA3; 50 nM soluble human EphrinA5; dissociation; absolute; read-out: Absolute Dissociation IC50
Measured IC50, listed per entry for reference.
State just the number; it will be interpreted in nM.

Consider the following illustrative entries.
chem-smiles: Oc1ccc(CN2CCN(Cc3ccc(C(F)(F)F)cc3)CC2)c2cccnc12
IC50 / nM: 6240

chem-smiles: Oc1c(I)cc(CN2CCOCC2)c2cccnc12
IC50 / nM: 480

chem-smiles: Oc1c(Br)cc(CN2CCOCC2)c2cccnc12
IC50 / nM: 520

Ask: Identify the measured IC50 of `Oc1c(Cl)cc(CN2CCOCC2)c2cccnc12` for EphA3-EphrinA5 (Homo sapiens).
Reply: 620

###

Target: EphrinB2-EphB1 (Homo sapiens, UniProt P54762)
Construct: soluble human EphB1-His, EphB2-His, and EphB4-His ectodomains; commercially available human EphrinB1-Fc (EB1), EphrinB2-Fc (EB2), and EphrinB3-Fc (EB3) ectodomain proteins; purchased
Sequence (P54762 18-540 limits assumed): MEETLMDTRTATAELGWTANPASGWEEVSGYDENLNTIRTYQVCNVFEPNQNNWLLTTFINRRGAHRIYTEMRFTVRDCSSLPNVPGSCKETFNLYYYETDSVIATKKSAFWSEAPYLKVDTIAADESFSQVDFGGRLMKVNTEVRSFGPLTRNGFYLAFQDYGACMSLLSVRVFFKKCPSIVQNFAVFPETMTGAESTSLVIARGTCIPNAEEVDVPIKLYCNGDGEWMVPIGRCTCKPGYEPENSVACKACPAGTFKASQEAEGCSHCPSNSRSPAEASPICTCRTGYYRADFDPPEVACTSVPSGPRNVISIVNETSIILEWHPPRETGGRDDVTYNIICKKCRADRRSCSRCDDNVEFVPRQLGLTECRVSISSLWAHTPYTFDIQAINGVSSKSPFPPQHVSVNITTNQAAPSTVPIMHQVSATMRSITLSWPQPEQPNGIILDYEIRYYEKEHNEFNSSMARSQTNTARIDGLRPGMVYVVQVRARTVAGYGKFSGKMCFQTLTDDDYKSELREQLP
Test: Octet 80 sec association/500 sec dissociation, immobilized human EphrinB2-Fc binding to soluble human EphB1-His
Conditions: EphB1; Association (AUC); read-out: Relative IC50
Measured IC50, listed per entry for reference.
State just the number; it will be interpreted in nM.

chem-smiles: Oc1c(I)cc(CN2CCOCC2)c2cccnc12
measurement-unit: nM
IC50: 980

Ask: Suppose we examine the compound `Oc1c(Br)cc(CN2CCN(c3ccc(Br)cc3)CC2)c2cccnc12` ; what IC50 value has been reported?
Reply: 100

###

Target: EphrinB2-EphB1 (Homo sapiens, UniProt P54762)
Construct: soluble human EphB1-His, EphB2-His, and EphB4-His ectodomains; commercially available human EphrinB1-Fc (EB1), EphrinB2-Fc (EB2), and EphrinB3-Fc (EB3) ectodomain proteins; purchased
Test: Octet 80 sec association/500 sec dissociation, immobilized human EphrinB2-Fc binding to soluble human EphB1-His
Details: EphB1; 25 nM EphB1; 3.2 μM compound; A20-I as max control; 0* = less than 0, no inhibition; read-out: % Inhibition: Association ONLY (80 sec)
metric-name: inhibition at 3.2 µM

chem-smiles: Oc1c(Br)cc(CN2CCOCC2)c2cccnc12
tested-system: EphrinB2-EphB1 (Homo sapiens, UniProt P54762)
inhibition at 3.2 µM: 25.1%
--
chem-smiles: Oc1ccc(CN2CCN(c3ccc(Br)cn3)CC2)c2cccnc12
tested-system: EphrinB2-EphB1 (Homo sapiens, UniProt P54762)
inhibition at 3.2 µM: 46.4%

Ask: Suppose we examine the compound `COc1ccccc1N1CCN(Cc2cc(I)c(O)c3ncccc23)CC1` ; what inhibition at 3.2 µM value has been reported?
Reply: 39.6%

Ask: Please do the same for `O=C(Cc1ccccc1)Nc1ccc(N2CCN(Cc3ccc(O)c4ncccc34)CC2)cc1` as well.
Reply: 52.7%

Ask: Please do the same for `COc1ccccc1N1CCN(Cc2cc(Br)c(O)c3ncccc23)CC1` as well.
Reply: 47.2%

Ask: Please do the same for `Oc1c(Cl)cc(CN2CCOCC2)c2cccnc12` as well.
Reply: 34.2%

Ask: Please do the same for `OCc1ccc2c(CN3CCOCC3)cc(Br)c(O)c2n1` as well.
Reply: 12.4%

Ask: Please do the same for `COc1ccc2[nH]cc(C(=O)N3CCN(c4ccccc4OC)CC3)c2c1` as well.
Reply: 0%

Ask: Please do the same for `Oc1ccc(CN2CCN(Cc3ccc(C(F)(F)F)cc3)CC2)c2cccnc12` as well.
Reply: 2.6%

###

Measured pIC50, listed per entry for reference.
Molecular target: EphrinB2-EphB2 (Homo sapiens, UniProt P29323)
Construct: soluble human EphB1-His, EphB2-His, and EphB4-His ectodomains; commercially available human EphrinB1-Fc (EB1), EphrinB2-Fc (EB2), and EphrinB3-Fc (EB3) ectodomain proteins; purchased
Experiment: Octet tetramerization inhibition, immobilized human EphrinB2 binding to 50 nM soluble human EphB2
Settings: Relative AUC/IC50, Table A, EphrinB2-EphB2; compound 7: association only
pIC50: −log10 of the molar value.

Ask: Suppose we examine the molecule `O=S1(=O)CCN(Cc2cc(I)c(O)c3ncccc23)CC1` ; what pIC50 value has been reported?
Reply: 6.16

###

Biological target: EphrinB2-EphB2 (Homo sapiens, UniProt P29323)
Construct: soluble human EphB1-His, EphB2-His, and EphB4-His ectodomains; commercially available human EphrinB1-Fc (EB1), EphrinB2-Fc (EB2), and EphrinB3-Fc (EB3) ectodomain proteins; purchased
Experiment: Octet tetramerization inhibition, immobilized human EphrinB2 binding to 50 nM soluble human EphB2
Details: tetramerization inhibitor IC50, surmountable tetramer
pIC50: −log10 of the molar value.
metric-name: pIC50

Ask: Suppose we examine the compound `Oc1c(Br)cc(CN2CCN(c3ccc(Br)cc3)CC2)c2cccnc12` ; what pIC50 value has been reported?
Reply: ~6.52

###

Biological target: EphrinB2-EphB1 (Homo sapiens, UniProt P54762)
Construct: soluble human EphB1-His, EphB2-His, and EphB4-His ectodomains; commercially available human EphrinB1-Fc (EB1), EphrinB2-Fc (EB2), and EphrinB3-Fc (EB3) ectodomain proteins; purchased
Assay: Octet, immobilized human EphrinB2 binding to 50 nM soluble human EphB1
Conditions: Table B, EphrinB2-EphB1; read-out: Absolute Dissociation IC50 (450 sec)
Procedure: Studies were conducted to confirm that A20 chemicals can effectively target the human Eph/Ephrin proteins. […] Therefore, commercially available human EphrinB1-Fc (EB1), EphrinB2-Fc (EB2), and EphrinB3-Fc (EB3) ectodomain proteins were sparsely immobilized onto biosensors and then exposed to 50 nM of soluble human EphB1-His, EphB2-His, and EphB4-His ectodomains for 800 sec association and 1,000 sec dissociation steps with a total of nine different interactions analyzed. […]
metric-name: pIC50
Field pIC50 (float): negative decimal logarithm of the concentration in molar.

Ask: Suppose we examine the compound Oc1c(Br)cc(CN2CCN(c3ccc(Br)cc3)CC2)c2cccnc12 [Compound 30] ; what pIC50 value has been reported?
Reply: 6.48

###

Measured IC50, listed per entry for reference.
Molecular target: EphA3-EphrinA1 (Homo sapiens, UniProt P29320)
Assay: Octet, immobilized human EphA3 binding to human EphrinA1
Details: Absolute Association IC50, Human EphA3-EphrinA1; immobilized human EphA3; 50 nM soluble human EphrinA1; association; absolute
State just the number; it will be interpreted in µM.

compound: O=[N+]([O-])c1cc(CN2CCOCC2)c2cccnc2c1O [Compound 10]
value-measured: 14

Alright, here's another compound for you.
Ask: Suppose we examine the compound Oc1c(Cl)cc(CN2CCOCC2)c2cccnc12 [Compound 4] ; what IC50 value has been reported?
Reply: 1.84

###

Molecular target: EphrinB2-EphB2 (Homo sapiens)
Construct: soluble human EphB1-His, EphB2-His, and EphB4-His ectodomains; commercially available human EphrinB1-Fc (EB1), EphrinB2-Fc (EB2), and EphrinB3-Fc (EB3) ectodomain proteins; purchased
Assay: Octet tetramerization inhibition, immobilized human EphrinB2 binding to 50 nM soluble human EphB2
Conditions: Absolute Association IC50 (300 sec), Table A, EphrinB2-EphB2
metric-name: IC50

Ask: Suppose we examine the compound Oc1c(Br)cc(CN2CCN(Cc3ccc(Br)cc3)CC2)c2cccnc12 [Compound 44] ; what IC50 value has been reported?
Reply: > 3200 nM
